study-target: 5-hydroxytryptamine receptor 2C (Homo sapiens)
Sequence (P28335 whole entry): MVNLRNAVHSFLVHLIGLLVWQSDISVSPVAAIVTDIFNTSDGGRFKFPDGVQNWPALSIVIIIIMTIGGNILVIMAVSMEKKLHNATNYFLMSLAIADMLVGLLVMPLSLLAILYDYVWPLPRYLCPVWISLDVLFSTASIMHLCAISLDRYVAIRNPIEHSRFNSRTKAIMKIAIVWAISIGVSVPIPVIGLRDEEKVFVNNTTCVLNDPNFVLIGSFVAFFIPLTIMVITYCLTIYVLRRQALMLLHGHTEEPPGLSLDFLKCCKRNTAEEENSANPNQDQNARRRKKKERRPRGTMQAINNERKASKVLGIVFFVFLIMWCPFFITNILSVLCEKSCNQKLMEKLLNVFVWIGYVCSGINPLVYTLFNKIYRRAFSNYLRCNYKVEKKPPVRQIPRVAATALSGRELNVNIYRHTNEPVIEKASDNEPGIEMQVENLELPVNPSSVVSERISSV
observation-type: pKi
Friendly reminder that pKi comes from taking -log10 of the concentration in mol/L.

State the recorded pKi for this entry: COc1ccc(CC(=O)N(Cc2ccc(C)cc2)C2CCN(C)CC2)cc1
8.54
